ASSAY: In vivo pharmacokinetic study of VEN and ODV in rats with or without vonoprazan
Parameters: species or system Sprague-Dawley rats
EXPERIMENTAL CONTEXT: male, Sprague-Dawley, rat, plasma, po, 20 mg/kg, MRT(0-∞), rat plasma; VEN 20 mg/kg oral; + vonoprazan 5 mg/kg oral, 7 days
MEASURED ENDPOINT: MRT inf (h)
Expressed in h, but write only the number.

COc1ccc(C(CN(C)C)C2(O)CCCCC2)cc1 (centres unmarked) [VEN, Venlafaxine] : 2.52

Attention now turns to another entry.
Q. State the recorded MRT inf for this entry: CN(C)CC(c1ccc(O)cc1)C1(O)CCCCC1 (centres unmarked) [ODV, O-desmethylvenlafaxine]
A. 3.28

----------
ASSAY: In vivo pharmacokinetic study of VEN and ODV in rats with or without vonoprazan
Set-up: species or system Sprague-Dawley rats
EXPERIMENTAL CONTEXT: male, Sprague-Dawley, rat, plasma, po, 20 mg/kg, CLz/F, rat plasma; VEN 20 mg/kg oral; + vonoprazan 20 mg/kg oral, 7 days
MEASURED ENDPOINT: CL/F

CN(C)CC(c1ccc(O)cc1)C1(O)CCCCC1 (centres unmarked) [ODV, O-desmethylvenlafaxine] : 41.7 L/h/kg

Attention now turns to another entry.
Q. State the recorded CL/F for this entry: COc1ccc(C(CN(C)C)C2(O)CCCCC2)cc1 (centres unmarked) [VEN, Venlafaxine]
A. 11.5 L/h/kg

----------
# Tmax listing for each entry below
ASSAY: In vivo pharmacokinetic study of VEN and ODV in rats with or without vonoprazan
Parameters: species or system Sprague-Dawley rats
EXPERIMENTAL CONTEXT: male, Sprague-Dawley, rat, plasma, po, 20 mg/kg, Tmax, rat plasma; VEN 20 mg/kg oral; + vonoprazan 20 mg/kg oral, 7 days
Answer with the value and then the unit.

COc1ccc(C(CN(C)C)C2(O)CCCCC2)cc1 (centres unmarked) : 2.6 h

Attention now turns to another entry.
Q. State the recorded Tmax for this entry: CN(C)CC(c1ccc(O)cc1)C1(O)CCCCC1 (centres unmarked)
A. 2.6 h

----------
ASSAY: In vivo pharmacokinetic study of VEN and ODV in rats with or without vonoprazan
Set-up: species or system Sprague-Dawley rats
EXPERIMENTAL CONTEXT: male, Sprague-Dawley, rat, plasma, po, 20 mg/kg, CLz/F, rat plasma; VEN 20 mg/kg oral; without vonoprazan (control)
# CL/F listing for each entry below
Expressed in mL/min/kg, but write only the number.

COc1ccc(C(CN(C)C)C2(O)CCCCC2)cc1 (centres unmarked) : 1460

Attention now turns to another entry.
Q. State the recorded CL/F for this entry: CN(C)CC(c1ccc(O)cc1)C1(O)CCCCC1 (centres unmarked)
A. 2200

----------
ASSAY: In vivo pharmacokinetic study of VEN and ODV in rats with or without vonoprazan
Set-up: species or system Sprague-Dawley rats
EXPERIMENTAL CONTEXT: male, Sprague-Dawley, rat, plasma, po, 20 mg/kg, AUC(0-∞), rat plasma; VEN 20 mg/kg oral; without vonoprazan (control)
# AUC(0-inf) listing for each entry below

CN(C)CC(c1ccc(O)cc1)C1(O)CCCCC1 (centres unmarked) : 161 ng·h/mL

Q. State the recorded AUC(0-inf) for this entry: COc1ccc(C(CN(C)C)C2(O)CCCCC2)cc1 (centres unmarked)
A. 261 ng·h/mL
